Tested on: NCI-H23 lung
assay procedure: NCI-60 one-dose screen, 48 h (100 = growth as untreated, 0 = no growth, -100 = all killed)
cond: 10 µM unless noted
The panel holds about 83,000 compounds, 20% with a hit somewhere; the sample as a whole holds those more often.
# growth per record follows
Kindly answer with a numeric value in %, unit omitted.

Study these solved cases before continuing.
# molecule, quantitative result
records = [
    ("CCN1CCN(c2cc(C)nc(N(CCNc3ccnc4cc(Cl)ccc34)Cc3ccc4c(c3)OCO4)n2)CC1", 13.6),
    ("COc1ccc(/C=C(/c2ccccc2)[N+](=O)[O-])c(OC)c1", 21.1),
    ("CC(=O)OC[C@]12CC[C@@H]([C@@H](C)c3nnc(-c4ccncc4)o3)[C@@H]1[C@H]1CC[C@@H]3[C@@]4(C)CC[C@H](OC(C)=O)C(C)(C)[C@@H]4CC[C@@]3(C)[C@]1(C)CC2", 82),
]

Alright, here's another molecule for you.
molecule NS(=O)(=O)c1ccc(NC(=O)/C(=C\c2ccc(Cl)cc2Cl)NC(=O)c2ccccc2)cc1 , growth observed: 107

###

Tested on: SF-295 CNS
assay procedure: NCI-60 one-dose screen, 48 h
cond: 10 µM unless noted
Description: Cells are grown in 96 well plates and exposed to the test compound for 48 hours. Compounds are tested at a single concentration, which is 10^-5 M for most compounds. The reported endpoint is percent growth (GI% or GIPRCNT), where numbers from 0 - 100% represent growth inhibition, and numbers from -100% - 0 represent cell death. For example, a value of 40 represents 60% growth inhibition. A value of 0 means no net growth occurred over the course of the experiment. […]
Compounds without any hit were thinned out: in the full panel of roughly 83,000, 20% have a hit. Activity calls are given as the source filed them. How the source made its calls: active means growth percent below 10; inactive means the rest.
Allowed answers: active, inactive

Recorded results for 5 molecules are shown here.
# molecule, qualitative label
records = [
    ("Cc1cccc2c1C[C@@]1(C2=O)C(c2ccc(C(C)(C)C)cc2)=NOS1=O (stereo not given in full)", "inactive"),
    ("CCOC(=O)c1c(C)nc2c(c1N)/C(=C/c1ccc(OC)cc1)C(=O)N2Cc1ccccc1", "inactive"),
    ("Cc1nc2cc(O)c(O)cc2cc1Oc1ccc(NC(=O)Nc2ccc(Cl)c(Cl)c2)cc1", "inactive"),
    ("CCN(CC)CCN1C(=O)c2cccc3c(/C=C/CN4C(=O)c5cccc6cccc(c56)C4=O)ccc(c23)C1=O", "inactive"),
    ("Cc1ccc(/C=C/C(=O)Nc2ncc(Cc3ccc(F)cc3)s2)o1", "inactive"),
]

Please share the test call associated with Fc1ccc2[nH]cc(-c3nc(-c4c[nH]c5ccncc45)cs3)c2c1 . active

Entry O=c1c2ccccc2c(=O)c2c1sc1c(=O)c3ccc(O)cc3c(=O)c12 : call = ? active

Please let me know the test result on file for O=C1Nc2c(C(=O)O)cccc2/C1=N/c1n[nH]c(=S)s1 . inactive

// outcome(item) with item = Cc1ccc(C)c2c(C)c(C(=O)Nc3cccc(-n4cccn4)c3)oc12 inactive

# lookup: test call for CCOC(=O)c1c(C)nc2ccccc2c1/C=C/c1cccs1 inactive

###

Test system: MALME-3M melanoma
assay procedure: NCI-60 one-dose screen, 48 h (100 = growth as untreated, 0 = no growth, -100 = all killed)
cond: 10 µM unless noted
About 83,000 compounds went through this panel and 20% of them were active in at least one assay; those are over-represented in the sample as a whole.
measured property: growth (%)
Express the result in % but write the number alone.

For orientation, consider the following solved cases.
# compound, endpoint unit, quantitative result
records = [
    ("Cn1cc(-c2ccc(-c3cn(C)c4ccc(Cl)cc34)[nH]2)c2cc(Cl)ccc21", "%", -59.1),
    ("C=C1C(=O)O[C@H]2[C@H]1CC/C(COC(=O)c1cc3cc(Cl)ccc3[nH]1)=C\\CC[C@@]1(C)O[C@@H]21", "%", -76.9),
    ("CS(=O)(=O)c1ccc(NC(=O)c2ccccc2)nc1", "%", 108),
    ("COc1ccc(C2CC(c3cc(OC)c(OC)c(OC)c3)=NO2)cc1OCCCCOc1cc2c(cc1OC)C(=O)N1CCC[C@H]1C=N2 (stereo partly drawn)", "%", -43.1),
    ("NS(=O)(=O)c1ccc(C(=O)NN2C(=O)c3c(Br)c(Br)c(Br)c(Br)c3C2=O)cc1", "%", 98.7),
    ("CCN1C(=O)N(CC)C2C1NN=c1s/c(=C\\c3ccc[nH]3)c(=O)n12 (stereo not drawn)", "%", 34.5),
    ("C#CCO[C@H]1CC(CC#C)(CC#C)C(=O)[C@@H]2[C@H]1[C@H]1C[C@@H]3[C@@]4(C)CCC[C@@](C)(C(=O)OC)[C@@H]4CC[C@@]23C=C1C(C)C", "%", -35.9),
]

Quick note, growth for CC1(C)CC[C@]2(C(=O)N[C@H](CO)Cc3ccccc3)CC[C@]3(C)C(=CC[C@@H]4[C@@]5(C)CCCNC(C)(C)[C@@H]5CC[C@]43C)[C@@H]2C1 landed at 106

###

System: UACC-62 melanoma
assay procedure: NCI-60 one-dose screen, 48 h (100 = growth as untreated, 0 = no growth, -100 = all killed)
cond: 10 µM unless noted
Compounds without any hit were thinned out: in the full panel of roughly 83,000, 20% have a hit.
Binary label based on growth with cut-off 70%: below gives MET, not below gives NOT MET.

Here are 10 molecules together with their reported answers.
# molecule, qualitative label
records = [
    ("COc1ccc(C(O)c2cc3c(N)c(C(=O)Nc4cccc(Cl)c4C)sc3nc2C)cc1 (stereo not given)", "MET"),
    ("COc1cc(/C=N/Nc2ccc(Br)cc2)cc(OC)c1OC", "MET"),
    ("NS(=O)(=O)c1ccc(NC(=O)/C(=C\\c2ccc(Cl)cc2Cl)NC(=O)c2ccccc2)cc1", "NOT MET"),
    ("CC1CCN(C(=O)CCCl)c2ccccc21 (stereo not given)", "NOT MET"),
    ("Cc1nnc(-c2ccc3c(c2)nc(/C=C/c2ccccc2)n3C2CCCCC2)o1", "MET"),
    ("COc1cc(NC(=O)c2cncnc2Nc2ccc3c(ccn3Cc3ccccn3)c2)cc(OC)c1", "MET"),
    ("Nc1nc(N)c2c(n1)NC(c1ccc(Cl)cc1)C1CCc3ccccc3C1=N2 (stereo not given)", "MET"),
    ("CC/C=C\\C[C@H](O)C/C=C1/C(=O)C=C[C@@H]1C/C=C\\CCCC(=O)O", "MET"),
    ("Cn1ccc(=O)nc1", "NOT MET"),
    ("CC(C)(C)c1cc(Cl)c(O)c(CNCCO)c1", "NOT MET"),
]

I wonder whether COc1ccc2cc(-c3ccnc4c(N=Nc5ccc(Cl)cc5)c(N)nn34)ccc2c1 has growth below 70%. Can you tell? NOT MET

Bench note: check whether CN1CCN(CCCOc2cccc3nc(Nc4ccc(F)c(F)c4)ccc23)CC1 shows growth below 70% MET

hey, is growth for CC1=C(C(=O)Nc2ccccc2)C(c2ccc3c(c2)OCO3)NC(=S)N1 (stereo not given) lower than 70% or not? NOT MET

Does the reported growth of COc1ccc2c(c1)/C(=N/c1n[nH]c(=S)s1)C(=O)N2 stay below 70%? NOT MET

Problem: For the molecule CCOc1ccc(-n2nc(C(=O)NCc3ccccc3OC)nc2-c2cc(OC)c(OC)c(OC)c2)cc1 , is growth under 70%? MET

I wonder whether C#CCNC(=O)[C@]1(C)CCC[C@@]2(C)[C@H]1CC=C1C=C(C(C)C)CC[C@@H]12 has growth below 70%. Can you tell? NOT MET

Take the molecule COc1cc2c(cc1OCCCCN1CCN(C(=S)SCCC(C#N)(c3ccccc3)c3ccccc3)CC1)N=C[C@@H]1CCCN1C2=O and say whether its growth is less than 70%. MET

# strict comparison: is reported growth < 70%? input = CN1CCN(Cc2ccc(NC(=O)c3cncc(C#Cc4cnc5ccc(Cl)nn45)c3)cc2C(F)(F)F)CC1 MET

Consider the molecule O=C(CCCCCCN1CC(=O)N2[C@H](c3ccc(Br)cc3)c3[nH]c4ccccc4c3C[C@@H]2C1=O)NO . Is its growth strictly less than 70%? MET

Please indicate whether the reported growth of Cc1ccc(S(=O)(=O)Oc2ccc3sc4cccc(NCCN(C)C)c4c(=O)c3c2)cc1 is strictly below 70%. MET

###

Test system: COLO 205 colon
assay procedure: NCI-60 one-dose screen, 48 h
cond: 10 µM unless noted
About 83,000 compounds went through this panel and 20% of them were active in at least one assay; those are over-represented in the sample as a whole. Calls of active or inactive are those of the source. Rule for the calls: active = growth percent below 10; inactive = the rest.
Respond using exactly one of the listed classes: active, inactive

Reference set (3 entries):
# molecule, test target, qualitative label
rows = [
    ("COC(=O)c1c2c(c(C)[n+]([O-])c1C)C(=O)C(NCc1ccc(OC)cc1)=CC2=O", "COLO 205 colon", "active"),
    ("CC1(C)CC[C@]2(C(=O)N[C@H](CO)Cc3ccccc3)CC[C@]3(C)C(=CC[C@@H]4[C@@]5(C)CCCNC(C)(C)[C@@H]5CC[C@]43C)[C@@H]2C1", "COLO 205 colon", "inactive"),
    ("O=C(NCc1cccc(CNC(=O)Nc2nc3ccccc3[nH]2)c1)Nc1nc2ccccc2[nH]1", "COLO 205 colon", "active"),
]

Dear colleague, could you share the recorded outcome for COC(=O)C(Cc1ccccc1)NC(=O)c1ccc(NC(=O)c2[nH]c(C)c(Cl)c2Cl)c(OC(C)C)c1 (stereo not drawn) when you have a moment? inactive

State the result this test recorded for CN1CCN(CCOc2ccc(-c3cnc4c(-c5cccc(F)c5F)cnn4c3)cc2)CC1 . inactive

Please indicate how the test categorized CCCC(CC)(C(=O)Nc1ccc2nc(C)cc(N)c2c1)C(=O)Nc1ccc2nc(C)cc(N)c2c1 . inactive

Outcome? CC1C=CC(OC(=O)C(C)(O)CCC(O)(C(=O)OC2CC(O)C(C(C)C)CC2(C)O)C(C)C)(C(C)C)CC1 (stereo not drawn) active

For C[C@]1(O)CC(=O)[C@]2(O)C3=C(C=C[C@]2(O)C1)C(=O)c1c(O)cccc1C3=O , what call appears in the results of this test? active

These entries and their values trace back to PubChem BioAssay (NCI).
